target_or_test_system: K-Ras G12D (Homo sapiens, UniProt P01116, G12D)
Sequence (P01116 1-188 isoform P01116-2 G12D): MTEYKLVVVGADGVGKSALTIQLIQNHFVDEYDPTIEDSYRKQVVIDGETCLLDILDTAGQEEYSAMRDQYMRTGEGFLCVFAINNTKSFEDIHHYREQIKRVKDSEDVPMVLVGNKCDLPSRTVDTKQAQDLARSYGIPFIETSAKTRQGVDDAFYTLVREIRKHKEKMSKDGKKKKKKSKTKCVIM
experiment_notes: HTRF resonance energy transfer assay, K-Ras G12D / SOS1 interaction
measurement_parameters: HTRF assay of Example 5; read-out: IC50 against K-Ras G12D
pIC50: −log10 of the molar value.
endpoint_name: pIC50

- molecule: "CN1CCC(N2CCOc3c(Cl)c(-c4ccc(F)c5sc(N)c(C#N)c45)c(F)c4nc(OC[C@@]56CCCN5C[C@H](F)C6)nc2c34)C1=O (stereo partly drawn)"
  target_or_test_system: "K-Ras G12D (Homo sapiens, UniProt P01116, G12D)"
  pIC50: "> 7.00"
- molecule: "N#Cc1c(N)sc2c(F)ccc(-c3c(Cl)c4c5c(nc(OC[C@@]67CCCN6C[C@H](F)C7)nc5c3F)N(C3CCCN(C(=O)[C@@H]5N[C@H]5C5CC5)C3)CCO4)c12 (stereo partly drawn)"
  target_or_test_system: "K-Ras G12D (Homo sapiens, UniProt P01116, G12D)"
  pIC50: "> 7.00"

As a next step, examine the molecule that follows.
Request: Return pIC50 (reported value) for this molecule: COC1(C)CC(N2CCOc3c(Cl)c(-c4ccc(F)c5sc(N)c(C#N)c45)c(F)c4nc(OC[C@@]56CCCN5C[C@H](F)C6)nc2c34)C1 (stereo partly drawn)
Response: > 7.00

----------
target_or_test_system: K-Ras G12D (Homo sapiens, UniProt P01116, G12D)
experiment_notes: HTRF resonance energy transfer assay, K-Ras G12D / SOS1 interaction
measurement_parameters: HTRF assay of Example 5; read-out: IC50 against K-Ras G12D
pIC50: −log10 of the molar value.
endpoint_name: pIC50

Worked set:
- molecule: "C#C[C@H]1COc2c(Cl)c(-c3ccc(F)c4sc(N)c(C#N)c34)c(F)c3nc(OC[C@@]45CCCN4C[C@H](F)C5)nc(c23)N1C1CCOC1 (stereo partly drawn)"
  pIC50: "> 7.00"
- molecule: "N#Cc1c(N)sc2c(F)ccc(-c3c(Cl)c4c5c(nc(OC[C@@]67CCCN6C[C@H](F)C7)nc5c3F)N(C3CCOC3)[C@@H](C3(F)CC3)CO4)c12 (single isomer, unassigned)"
  pIC50: "> 7.00"

Request: Note pIC50 for the molecule shown: C[C@H]1C(C(F)F)Oc2c(Cl)c(-c3ccc(F)c4sc(N)c(C#N)c34)c(F)c3nc(OC[C@@]45CCCN4C[C@H](F)C5)nc(c23)N1CC(F)F (stereo partly drawn)
Response: > 7.00

----------
System: SW620 cells
experiment_notes: Ras cellular assay, growth of cells with K-Ras G12V mutation (CellTiter-Glo)
Type: cell-based
measurement_parameters: Homo sapiens, SW-620; cell growth, Example 9, G12V mutation; read-out: IC50 against SW620 cells
endpoint_name: IC50

- molecule: "CC(O)C1C(C)Oc2c(Cl)c(-c3ccc(F)c4sc(N)c(C#N)c34)c(F)c3nc(OC[C@@]45CCCN4C[C@H](F)C5)nc(c23)N1CC(F)F (stereo partly drawn)"
  IC50: "< 5 µM"
- molecule: "N#Cc1c(N)sc2c(F)ccc(-c3c(Cl)c4c5c(nc(OC[C@@]67CCCN6C[C@H](F)C7)nc5c3F)N(C3CCN(C(=O)C(F)F)CC3)CCO4)c12"
  IC50: "< 5 µM"

Please look at the following molecule next.
Request: Give IC50 for CC(O)CC1COc2c(Cl)c(-c3ccc(F)c4sc(N)c(C#N)c34)c(F)c3nc(OC[C@@]45CCCN4C[C@H](F)C5)nc(c23)N1CC(F)F (stereo partly drawn)
Response: < 5 µM

----------
target_or_test_system: K-Ras G12V (Homo sapiens, UniProt P01116, G12V)
Sequence (P01116 1-188 isoform P01116-2 G12V): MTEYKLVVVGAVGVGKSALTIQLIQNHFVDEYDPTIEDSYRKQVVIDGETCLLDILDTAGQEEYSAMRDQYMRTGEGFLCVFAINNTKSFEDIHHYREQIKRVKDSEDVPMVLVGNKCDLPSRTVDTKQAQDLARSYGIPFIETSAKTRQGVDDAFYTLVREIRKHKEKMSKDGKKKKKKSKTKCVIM
experiment_notes: HTRF resonance energy transfer assay, K-Ras G12V / SOS1 interaction
measurement_parameters: HTRF assay of Example 5; read-out: IC50 against K-Ras G12V
endpoint_name: IC50

# annotated cases, reported IC50 shown
- molecule: "N#Cc1c(N)sc2c(F)ccc(-c3c(Cl)c4c5c(nc(OC[C@@]67CCCN6C[C@H](F)C7)nc5c3F)N([C@@H]3CCN(C(=O)C(F)F)C3)CCO4)c12"
  reported_measurement: "< 100 nM"
- molecule: "N#Cc1c(N)sc2c(F)ccc(-c3c(Cl)c4c5c(nc(OC[C@@]67CCCN6C[C@H](F)C7)nc5c3F)N(CC(F)F)[C@@H](C3CC3)CO4)c12"
  reported_measurement: "< 100 nM"
- molecule: "N#Cc1c(N)sc2c(F)ccc(-c3c(Cl)c4c5c(nc(OC[C@@]67CCCN6C[C@H](F)C7)nc5c3F)N(CC3CC3C#N)CCO4)c12 (stereo partly drawn)"
  reported_measurement: "< 100 nM"

Request: Give the reported value of IC50 for this record: CN1CCC(N2CCOc3c(Cl)c(-c4ccc(F)c5sc(N)c(C#N)c45)c(F)c4nc(OC[C@@]56CCCN5C[C@H](F)C6)nc2c34)C1=O (stereo partly drawn)
Response: < 100 nM

Request: Please report IC50 for the following molecule: `CN(C)C1(CN2CCOc3c(Cl)c(-c4ccc(F)c5sc(N)c(C#N)c45)c(F)c4nc(OC[C@@]56CCCN5C[C@H](F)C6)nc2c34)CC1`
Response: < 100 nM

Request: Consider the molecule N#Cc1c(N)sc2c(F)ccc(-c3c(Cl)c4c5c(nc(OC[C@@]67CCCN6C[C@H](F)C7)nc5c3F)N(C3CCC(OC(F)F)C3)CCO4)c12 (stereo partly drawn) . State its measured IC50.
Response: < 100 nM

----------
target_or_test_system: K-Ras G12S (Homo sapiens, UniProt P01116, G12S)
Sequence (P01116 1-188 isoform P01116-2 G12S): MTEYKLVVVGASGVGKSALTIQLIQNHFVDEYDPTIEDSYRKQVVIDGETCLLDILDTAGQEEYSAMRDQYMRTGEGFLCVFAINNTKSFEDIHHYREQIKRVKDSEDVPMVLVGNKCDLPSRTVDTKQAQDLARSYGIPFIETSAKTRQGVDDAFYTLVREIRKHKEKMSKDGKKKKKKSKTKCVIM
experiment_notes: HTRF resonance energy transfer assay, K-Ras G12S / SOS1 interaction
measurement_parameters: HTRF assay of Example 5; read-out: IC50 against K-Ras G12S
endpoint_name: IC50

- molecule: "C#Cc1c(F)ccc2cc(O)cc(-c3nc4c5c(nc(OC[C@@]67CCCN6C[C@H](F)C7)nc5c3F)N(C3CCNC3)CCO4)c12 (stereo partly drawn)"
  target_or_test_system: "K-Ras G12S (Homo sapiens, UniProt P01116, G12S)"
  IC50: "< 100 nM"

Request: Print K-Ras G12S (Homo sapiens, UniProt P01116, G12S) IC50 for N#Cc1c(N)sc2c(F)ccc(-c3c(Cl)c4c5c(nc(OC[C@@]67CCCN6C[C@H](F)C7)nc5c3F)N(C3CCC(=C(F)F)C3)CCO4)c12 (stereo partly drawn) .
Response: < 100 nM

Request: Provide IC50, system K-Ras G12S (Homo sapiens, UniProt P01116, G12S), entry `N#Cc1c(N)sc2c(F)ccc(-c3c(Cl)c4c5c(nc(OC[C@@]67CCCN6C[C@H](F)C7)nc5c3F)N(CC3(C#N)CCC3)CCO4)c12`
Response: < 100 nM

----------
target_or_test_system: K-Ras WT (Homo sapiens, UniProt P01116)
Sequence (P01116 1-188 isoform P01116-2): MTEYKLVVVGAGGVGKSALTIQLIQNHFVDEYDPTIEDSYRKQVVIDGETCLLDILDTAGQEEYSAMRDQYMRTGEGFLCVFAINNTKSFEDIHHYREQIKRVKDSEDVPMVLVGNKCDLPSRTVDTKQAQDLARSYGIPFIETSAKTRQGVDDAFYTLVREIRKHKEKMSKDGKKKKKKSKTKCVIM
experiment_notes: HTRF resonance energy transfer assay, K-Ras WT / SOS1 interaction
measurement_parameters: HTRF assay of Example 5; read-out: IC50 against K-Ras WT
pIC50: −log10 of the molar value.
endpoint_name: pIC50

- molecule: "N#Cc1c(N)sc2c(F)ccc(-c3c(Cl)c4c5c(nc(OC[C@@]67CCCN6C[C@H](F)C7)nc5c3F)N([C@@H]3CCNC3)CCO4)c12 [Compound 1124]"
  pIC50: "> 7.00"
- molecule: "CNC(=O)C1CC(N2CCOc3c(Cl)c(-c4ccc(F)c5sc(N)c(C#N)c45)c(F)c4nc(OC[C@@]56CCCN5C[C@H](F)C6)nc2c34)C1 (stereo partly drawn) [Compound 859]"
  pIC50: "> 7.00"

Shift focus to the following entry.
Request: Let me know recorded pIC50 for C#Cc1c(F)ccc2cc(O)cc(-c3nc4c5c(nc(OC[C@@]67CCCN6C[C@H](F)C7)nc5c3F)N(C3CCOC3)CCN4)c12 (stereo partly drawn) [Compound 771] , thanks.
Response: > 7.00

----------
target_or_test_system: K-Ras WT (Homo sapiens, UniProt P01116)
experiment_notes: HTRF resonance energy transfer assay, K-Ras WT / SOS1 interaction
measurement_parameters: HTRF assay of Example 5; read-out: IC50 against K-Ras WT
IC50 reference

Examples from the recorded data:
- molecule: "CC(C)[C@H](N)C(=O)N1CCC(N2C[C@H](C)Oc3c(Cl)c(-c4ccc(F)c5sc(N)c(C#N)c45)c(F)c4nc(OC[C@@]56CCCN5C[C@H](F)C6)nc2c34)C1 (stereo partly shown) [Compound 714]"
  target_or_test_system: "K-Ras WT (Homo sapiens, UniProt P01116)"
  IC50: "< 100 nM"
- molecule: "CC(C)(O)[C@H]1COc2c(Cl)c(-c3ccc(F)c4sc(N)c(C#N)c34)c(F)c3nc(OC[C@@]45CCCN4C[C@H](F)C5)nc(c23)N1 [Compound 815]"
  target_or_test_system: "K-Ras WT (Homo sapiens, UniProt P01116)"
  IC50: "< 100 nM"
- molecule: "C[C@H](Oc1nc2c3c(c(Cl)c(-c4ccc(F)c5sc(N)c(C#N)c45)c(F)c3n1)OCCN2[C@@H]1CCN(C(=O)C(F)F)C1)[C@@H]1CCCN1C [Compound 946]"
  target_or_test_system: "K-Ras WT (Homo sapiens, UniProt P01116)"
  IC50: "< 100 nM"

Request: Look up and report measured IC50 for this entry: C[C@H](Oc1nc2c3c(c(Cl)c(-c4ccc(F)c5sc(N)c(C#N)c45)c(F)c3n1)OCCN2C1CC2(CNC2)C1)[C@@H]1CCCN1C [Compound 856]
Response: < 100 nM

Request: Answer with the recorded IC50 for the molecule listed here: CN1c2nc(OC[C@@]34CCCN3C[C@H](F)C4)nc3c(F)c(-c4ccc(F)c5sc(N)c(C#N)c45)c(Cl)c(c23)OCC1CO (stereo partly shown) [Compound 900]
Response: < 100 nM

Request: For the molecule N#Cc1c(N)sc2c(F)ccc(-c3c(Cl)c4c5c(nc(OC[C@@]67CCCN6C[C@H](F)C7)nc5c3F)N(C3CCN(S(=O)(=O)C5CC5)C3)CCO4)c12 (stereo partly shown) [Compound 922] , report IC50.
Response: < 100 nM

Request: Tell me IC50 reported for N#Cc1c(N)sc2c(F)ccc(-c3c(Cl)c4c5c(nc(OC[C@@]67CCCN6C[C@H](F)C7)nc5c3F)N(C3CCOC3)CC(CF)O4)c12 (stereo partly shown) [Compound 628]
Response: < 100 nM

Request: Given N#Cc1c(N)sc2c(F)ccc(-c3c(Cl)c4c5c(nc(OC[C@@]67CCCN6C[C@H](F)C7)nc5c3F)N(C3CCN(C(=O)[C@H]5CCOC5)C3)CCO4)c12 (stereo partly shown) [Compound 736] , respond with its IC50.
Response: < 100 nM

Request: Supply IC50 value. Item: N#Cc1c(N)sc2c(F)ccc(-c3c(Cl)c4c5c(nc(OC[C@@]67CCCN6C[C@H](F)C7)nc5c3F)N(C3CC5CCC3N5C=O)CCO4)c12 (stereo partly shown) [Compound 892]
Response: < 100 nM

Source listed as patent US12209102B2.
